- system_tested: VCB and FAM-conjugated HIF1α-derived peptide interaction (Homo sapiens, UniProt P40337)
- Construct: human VHL (UniPort entry P40337, residues 1 -213); 6xHis followed by TEV site (N, cleaved yes)
- procedure_details: Competitive fluorescence polarization (FP) assay, VCB / FAM-conjugated HIF1α-derived peptide
- condition_summary: 2 h incubation between VCB and compound; read-out: apparent IC50 (FP)
test_readout: IC50

molecule | result_value
Cc1cc([C@H](C(=O)N2C[C@H](S(=O)(=O)F)C[C@H]2C(=O)N[C@@H](CC(=O)OC(C)(C)C)c2ccc(-c3scnc3C)cc2)C(C)C)on1 | 35 µM

* * *

- procedure_details: physchem
- condition_summary: buffer, pH 4
test_readout: half-life (h)

compound | test_readout | result_value
Cc1cc([C@H](C(=O)N2C[C@H](S(=O)(=O)F)C[C@H]2C(=O)N[C@@H](CC(=O)OC(C)(C)C)c2ccc(-c3scnc3C)cc2)C(C)C)on1 [VHL-SF2] | half-life | 38
